Molecular target: tau protein (Homo sapiens, UniProt P10636)
Construct: fused on or other part: Split Venus fragments VN173 and VC155, each fused to one copy of tau as BiFC reporter halves
Sequence (P10636 2-441 isoform P10636-8 limits assumed): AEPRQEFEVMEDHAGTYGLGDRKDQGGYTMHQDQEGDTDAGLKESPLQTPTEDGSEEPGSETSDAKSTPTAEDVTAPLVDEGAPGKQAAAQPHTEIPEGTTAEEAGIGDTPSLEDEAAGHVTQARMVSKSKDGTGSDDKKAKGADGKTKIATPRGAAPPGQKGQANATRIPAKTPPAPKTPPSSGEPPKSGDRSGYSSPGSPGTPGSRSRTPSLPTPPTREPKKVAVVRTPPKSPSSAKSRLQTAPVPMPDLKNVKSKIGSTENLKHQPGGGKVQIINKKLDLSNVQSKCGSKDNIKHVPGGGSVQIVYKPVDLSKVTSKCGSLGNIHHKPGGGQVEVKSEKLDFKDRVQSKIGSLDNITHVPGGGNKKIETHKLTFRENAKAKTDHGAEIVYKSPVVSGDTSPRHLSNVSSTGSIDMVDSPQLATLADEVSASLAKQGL
Assay: Tau-BiFC cell model, Forskolin-induced tau protein aggregation
Assay type: cell-based
Conditions: Tau BiFC in cells IC50, tau-BiFC cells, Forskolin 30 μM, 48 hours

molecule	IC50, µM
N#CC(C#N)=NNc1ccc(-c2ccc(=O)[nH]n2)cc1 [Comparative Example 1, reference compound]	16.8

###

Molecular target: tau protein (Homo sapiens)
Construct: fused on or other part: Split Venus fragments VN173 and VC155, each fused to one copy of tau as BiFC reporter halves
Experiment: Tau-BiFC cell model, Forskolin-induced tau protein aggregation
Type: cell-based
Conditions: 10 μM compound; BiFC fluorescence relative to Forskolin-only group (100% tau protein-aggregated state), 48 hours
Tau BiFC in cells Response (%, @10 μM) overview
readout_name: Tau BiFC in cells Response (%, @10 μM)

molecule	target_entity	value_measured
Cc1ccnn(-c2ccc(NN=C(C#N)C#N)cc2)c1=O [Comparative Example 8, reference compound]	tau protein (Homo sapiens)	0%
Cc1ccc(=O)n(-c2ccc(NN=C(C#N)C#N)cc2)n1 [Comparative Example 6, reference compound]	tau protein (Homo sapiens)	46.7%
CC1CC(=O)N(C(C)C)N=C1c1ccc(NN=C(C#N)C#N)cc1 (stereo not shown)	tau protein (Homo sapiens)	0%
COCCN1N=C(c2ccc(NN=C(C#N)C#N)cc2)C(C)CC1=O (stereo not shown)	tau protein (Homo sapiens)	15.6%

###

Target: CYP2C9 (Homo sapiens, UniProt P11712)
Construct: human liver microsomes (0.25 mg/mL); from tissue; host or cells: human liver microsomes
Sequence (P11712 whole entry): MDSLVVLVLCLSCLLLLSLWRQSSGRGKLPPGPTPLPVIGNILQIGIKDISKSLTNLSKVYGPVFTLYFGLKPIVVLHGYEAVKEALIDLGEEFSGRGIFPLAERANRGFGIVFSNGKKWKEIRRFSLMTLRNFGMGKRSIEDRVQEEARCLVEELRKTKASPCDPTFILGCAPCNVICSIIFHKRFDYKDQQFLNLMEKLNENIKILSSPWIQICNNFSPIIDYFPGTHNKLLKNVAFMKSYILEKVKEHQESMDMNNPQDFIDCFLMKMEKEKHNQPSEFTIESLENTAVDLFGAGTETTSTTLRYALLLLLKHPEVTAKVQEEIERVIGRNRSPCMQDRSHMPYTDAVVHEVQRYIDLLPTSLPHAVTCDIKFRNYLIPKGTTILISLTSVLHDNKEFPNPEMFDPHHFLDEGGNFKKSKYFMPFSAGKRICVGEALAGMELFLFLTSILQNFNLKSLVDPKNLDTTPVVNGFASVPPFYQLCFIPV
Assay: CYP coenzyme activity in human liver microsomes, CYP2C9
Format: in vitro ADME
Conditions: 10 μM compound, human liver microsomes 0.25 mg/mL, substrate diclofenac, 15 minutes
Protocol: Specifically, human liver microsomes (0.25 mg/mL), a 0.1 M phosphate buffer solution (pH 7.4), a substrate drug cocktail of five types of drug metabolism enzymes (50 μM phenacetin, 10 μM diclofenac, 100 μM S-mephenytoin, 5 μM dextromethorphan, and 2.5 μM midazolam), and the compound at a concentration of 0 μM or 10 μM were mixed and pre-cultured at 37° C. for 5 minutes, and then further cultured at 37° C. for 15 minutes together with an NADPH generation system solution added thereto. […]
compounds and their reported CYP2C9 activity (%) with respect to control group not treated with any compound
readout_name: CYP2C9 activity (%) with respect to control group not treated with any compound

compound	value_measured
CCN1N=C(c2ccc(NN=C(C#N)C#N)cc2)C(C)CC1=O (stereo not drawn)	99.9%
CC1CC(=O)N(CC(F)(F)F)N=C1c1ccc(NN=C(C#N)C#N)cc1 (stereo not drawn)	55.6%
CC1CC(=O)N(C2CC2)N=C1c1ccc(NN=C(C#N)C#N)cc1 (stereo not drawn)	74.2%
CC(C)N1N=C(c2ccc(NN=C(C#N)C#N)cc2)CCC1=O	70.4%
CC1CC(=O)N(C(C)C)N=C1c1ccc(NN=C(C#N)C#N)cc1 (stereo not drawn)	65.7%
COCCN1N=C(c2ccc(NN=C(C#N)C#N)cc2)C(C)CC1=O (stereo not drawn)	71.5%

###

Experiment: Liver microsome stability, human
Format: in vitro ADME
Details: human liver microsomes 0.25 mg/mL, 1 μM compound, 37° C., 30 minutes, NADPH
readout_name: Human (%) amount remaining after the reaction

compound	value_measured
CCN1N=C(c2ccc(NN=C(C#N)C#N)cc2)C(C)CC1=O (stereo not drawn) [Example 3]	90.3
CC(C)N1N=C(c2ccc(NN=C(C#N)C#N)cc2)CCC1=O [Example 1]	6.4
CC1CC(=O)N(CC(F)(F)F)N=C1c1ccc(NN=C(C#N)C#N)cc1 (stereo not drawn) [Example 4]	98.2
CC1CC(=O)N(C(C)C)N=C1c1ccc(NN=C(C#N)C#N)cc1 (stereo not drawn) [Example 2]	63.6
CC1CC(=O)N(C2CC2)N=C1c1ccc(NN=C(C#N)C#N)cc1 (stereo not drawn) [Example 6]	85
COCCN1N=C(c2ccc(NN=C(C#N)C#N)cc2)C(C)CC1=O (stereo not drawn) [Example 5]	30.9

###

Molecular target: tau protein (Homo sapiens, UniProt P10636)
Construct: fused on or other part: Split Venus fragments VN173 and VC155, each fused to one copy of tau as BiFC reporter halves
Experiment: Tau-BiFC cell model, Forskolin-induced tau protein aggregation
Assay type: cell-based
Conditions: tau-BiFC cells, Forskolin 30 μM, 48 hours; read-out: Tau BiFC in cells IC50
pIC50: −log10 of the molar value.
pIC50 for assorted compounds

compound	relation_sign	pIC50
CC1CC(=O)NN=C1c1ccc(NN=C(C#N)C#N)cc1 (centres unmarked) [Comparative Example 4, reference compound]	<	5.00
Cc1ccnn(-c2ccc(NN=C(C#N)C#N)cc2)c1=O [Comparative Example 8, reference compound]	=	5.60
Cc1cnn(-c2ccc(NN=C(C#N)C#N)cc2)c(=O)c1 [Comparative Example 7, reference compound]	=	5.35
N#CC(C#N)=NNc1ccc(-n2ncccc2=O)cc1 [Comparative Example 5, reference compound]	<	5.00
Cc1cc(-c2ccc(NN=C(C#N)C#N)cc2)n[nH]c1=O [Comparative Example 3, reference compound]	<	5.00
Cc1cc(=O)[nH]nc1-c1ccc(NN=C(C#N)C#N)cc1 [Comparative Example 2, reference compound]	=	5.46
C[C@@H]1CC(=O)NN=C1c1ccc(NN=C(C#N)C#N)cc1 [Levosimendan, reference compound]	=	5.84
Cc1ccc(=O)n(-c2ccc(NN=C(C#N)C#N)cc2)n1 [Comparative Example 6, reference compound]	<	5.00

###

Catalogue of CYP2C19 activity (%) with respect to control group not treated with any compound values
Biological target: CYP2C19 (Homo sapiens)
Construct: human liver microsomes (0.25 mg/mL); from tissue; host or cells: human liver microsomes
Sequence (P33261 whole entry): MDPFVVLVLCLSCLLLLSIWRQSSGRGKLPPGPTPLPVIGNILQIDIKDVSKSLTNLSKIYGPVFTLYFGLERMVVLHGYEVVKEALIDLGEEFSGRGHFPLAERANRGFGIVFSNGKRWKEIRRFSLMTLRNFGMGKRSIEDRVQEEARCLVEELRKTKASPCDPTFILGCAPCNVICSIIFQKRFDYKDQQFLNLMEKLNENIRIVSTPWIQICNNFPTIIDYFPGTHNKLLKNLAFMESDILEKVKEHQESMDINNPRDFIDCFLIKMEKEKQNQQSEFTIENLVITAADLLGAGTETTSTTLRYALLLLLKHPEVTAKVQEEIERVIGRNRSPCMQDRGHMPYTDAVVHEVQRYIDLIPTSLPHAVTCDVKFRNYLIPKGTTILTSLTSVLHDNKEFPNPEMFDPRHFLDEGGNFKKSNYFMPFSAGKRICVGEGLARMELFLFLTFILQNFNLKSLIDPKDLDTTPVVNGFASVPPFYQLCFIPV
Assay: CYP coenzyme activity in human liver microsomes, CYP2C19
Type: in vitro ADME
Conditions: 10 μM compound, human liver microsomes 0.25 mg/mL, substrate S-mephenytoin, 15 minutes
readout_name: CYP2C19 activity (%) with respect to control group not treated with any compound

compound	relation_sign	value_measured
CCN1N=C(c2ccc(NN=C(C#N)C#N)cc2)C(C)CC1=O (stereo not drawn)	>	100
COCCN1N=C(c2ccc(NN=C(C#N)C#N)cc2)C(C)CC1=O (stereo not drawn)	=	63.4
CC1CC(=O)N(CC(F)(F)F)N=C1c1ccc(NN=C(C#N)C#N)cc1 (stereo not drawn)	=	45.5
CC1CC(=O)N(C2CC2)N=C1c1ccc(NN=C(C#N)C#N)cc1 (stereo not drawn)	=	74.2
CC(C)N1N=C(c2ccc(NN=C(C#N)C#N)cc2)CCC1=O	=	70.8
CC1CC(=O)N(C(C)C)N=C1c1ccc(NN=C(C#N)C#N)cc1 (stereo not drawn)	=	64.7

###

Assay: Liver microsome stability, rat
Assay type: in vitro ADME
Settings: rat liver microsomes 0.25 mg/mL, 1 μM compound, 37° C., 30 minutes, NADPH
Description: The stability of liver microsomes due to the compounds prepared according to Examples 1 to 14 was confirmed. […] The amount of the substrate remaining after the reaction was analyzed using the Shimadzu Nexera XR system and TSQ Vantage (Thermo). […]
readout_name: Rat (%) amount remaining after the reaction

compound	relation_sign	value_measured
CC1CC(=O)N(C2CC2)N=C1c1ccc(NN=C(C#N)C#N)cc1 (stereo not drawn)	=	95.8
CC1CC(=O)N(CC(F)(F)F)N=C1c1ccc(NN=C(C#N)C#N)cc1 (stereo not drawn)	=	96.8
CC(C)N1N=C(c2ccc(NN=C(C#N)C#N)cc2)CCC1=O	>	100
COCCN1N=C(c2ccc(NN=C(C#N)C#N)cc2)C(C)CC1=O (stereo not drawn)	=	90.9
CCN1N=C(c2ccc(NN=C(C#N)C#N)cc2)C(C)CC1=O (stereo not drawn)	=	89.6
CC1CC(=O)N(C(C)C)N=C1c1ccc(NN=C(C#N)C#N)cc1 (stereo not drawn)	=	92.5

###

Test system: Tau-BiFC cells
Assay: Cell viability (stained nuclei count) in tau-BiFC cells
Conditions: 10 μM compound; stained nuclei relative to Forskolin-only group (100%), 48 hours

compound	target_entity	Cell viability (%, @10 μM) / %
N#CC(C#N)=NNc1ccc(-n2ncccc2=O)cc1 [Comparative Example 5, reference compound]	Tau-BiFC cells	124.2
C[C@@H]1CC(=O)NN=C1c1ccc(NN=C(C#N)C#N)cc1 [Levosimendan, reference compound]	Tau-BiFC cells	73.21
CC1CC(=O)N(CC(F)(F)F)N=C1c1ccc(NN=C(C#N)C#N)cc1 (centres unmarked) [Example 4]	Tau-BiFC cells	98.7
CCN1N=C(c2ccc(NN=C(C#N)C#N)cc2)C(C)CC1=O (centres unmarked) [Example 3]	Tau-BiFC cells	68.2
N#CC(C#N)=NNc1ccc(-c2ccc(=O)[nH]n2)cc1 [Comparative Example 1, reference compound]	Tau-BiFC cells	130.3
Cc1cc(=O)[nH]nc1-c1ccc(NN=C(C#N)C#N)cc1 [Comparative Example 2, reference compound]	Tau-BiFC cells	128.6
CC1CC(=O)N(C2CC2)N=C1c1ccc(NN=C(C#N)C#N)cc1 (centres unmarked) [Example 6]	Tau-BiFC cells	62.9
Cc1cc(-c2ccc(NN=C(C#N)C#N)cc2)n[nH]c1=O [Comparative Example 3, reference compound]	Tau-BiFC cells	113.1

Values from patent US12612372B2
